ASSAY_EXPLANATION: NCI Yeast Anticancer Drug Screen. Data for the mec2-1 strain (AID 157)
APPLIED_CONDITIONS: S. cerevisiae mec2-1 strain, at 50.0 µM (retest, dose inferred, filed as 5.0)
This is part of a sample that, as a whole, favours compounds with a hit. Of some 79,000 tested, about 15% had one in any assay. Active and inactive are the calls of the source. No stated cut-off is given here; in the data, active means growth inhibition above about 70%; inactive means the rest.
# output must be one of 1 = active, 0 = inactive

[
  {
    "COMPOUND": "CC([N+](=O)[O-])C1(O)C(=O)c2cccc3cccc1c23 (stereo unspecified)",
    "ASSIGNED_CLASS": 1
  }
]

Recorded test outcome, item "O=C1C2=Cc3ccccc3CCN2c2ccccc21"
0

Recorded test outcome, item "O=C(Nc1cc(Cl)cc(Cl)c1)OCCCl"
1

Recorded test outcome, item COc1ccc2c(c1OC)C(C(Cl)(Cl)Cl)N1CCc3cc4c(cc3C1=C2)OCO4 (stereo unspecified)
1

Recorded test outcome, item "CCC(CC)COC(=O)c1ccc(O)c(O)c1"
1

Recorded test outcome, item "Cc1cc([N+](=O)[O-])cc(Cl)c1O"
1

Recorded test outcome, item "CNC(=O)c1ccc(OC)cc1C1(O)c2ccccc2CCc2ccccc21"
0

Recorded test outcome, item CC(C)C(=O)OCC(C)(C)C1OCC(C)(C)C(C(C)C)O1 (stereo unspecified)
0

Recorded test outcome, item "Nc1ccc(-c2nc3ccccc3s2)cc1Br"
1

###

ASSAY_EXPLANATION: NCI Yeast Anticancer Drug Screen. Data for the bub3 strain (AID 167)
APPLIED_CONDITIONS: S. cerevisiae bub3 mutant strain, at 5.0 µM (retest, dose inferred, filed as 0.5), stronger effect = higher value
This is part of a sample that, as a whole, favours compounds with a hit. Of some 79,000 tested, about 15% had one in any assay.
Assign growth inhibition to each entry below.
Give bare numbers, in %.

Solved cases (5 shown):
[
  {
    "COMPOUND": "N/N=C(\\N)c1ccc2ccc3cccnc3c2n1",
    "growth inhibition, %": -3
  },
  {
    "COMPOUND": "O=C(O/N=C1/CCCC/C1=C\\c1ccccc1)c1ccccc1",
    "growth inhibition, %": 53
  },
  {
    "COMPOUND": "O=C(O)CCC(=O)c1ccc(C2CCCC2)c2ccccc12",
    "growth inhibition, %": -13
  },
  {
    "COMPOUND": "CNC(=O)N1N[C@H](c2ccccc2)[C@@H]1c1ccccc1",
    "growth inhibition, %": 29
  },
  {
    "COMPOUND": "COC(=O)c1cc2c(c(C(=O)OC)c1O)C(=O)C=CC2=O",
    "growth inhibition, %": -2
  }
]

Go through the list and state growth inhibition for each entry.
1. N#CC1Oc2ccccc2N1C(=O)c1ccccc1 (configuration not stated)
2. c1ccc(C[n+]2cccc(-c3cc4ccccc4[nH]3)c2)cc1

-8
-17

Go through the list and state growth inhibition for each entry.
1. CN(C)CCC(=O)/C=C/c1ccccc1
2. O=C1NC(=O)/C(=C/C=C/c2ccccc2)S1
3. O=S1(=O)CC(Cl)(Cl)C1
4. CN1C=CC(C(O)(c2ccccc2)c2ccccc2)CC1 (configuration not stated)

[-3, 61, 4, -5]

Form field: reported growth inhibition of CCCCOP(=O)(OCCCC)C(NS(=O)(=O)c1ccccc1)(C(=O)OCC)C(F)(F)F (configuration not stated)
9
